- Test system: Candida albicans (ATCC 24433)
- ASSAY EXPLANATION: In vitro anti-fungal activity, microdilution against Candida albicans
- Type: cell-based
- EXPERIMENTAL CONTEXT: ATCC24433, C. albicans ATCC 24433, compound 25 μg/ml, 24 h, read-out: Inhibition (%) after 24 h
PARAMETER: inhibition at 25 µg/mL (%)
// return numeric value only (unit: %, not printed)

- CPD SMILES: "Fc1ccc(-c2[nH]c(-c3c[nH]c4ccc(Br)cc34)nc2-c2ccccc2)cc1"
  inhibition at 25 µg/mL [%]: 86
- CPD SMILES: "Clc1ccc(-c2[nH]c(-c3c[nH]c4ccc(Br)cc34)nc2-c2ccccc2)cc1"
  inhibition at 25 µg/mL [%]: 93
- CPD SMILES: "Cc1[nH]c2ccccc2c1-c1nc(-c2ccc(N(C)C)cc2)c(-c2ccc(N(C)C)cc2)[nH]1"
  inhibition at 25 µg/mL [%]: 27

Qu. Query for Candida albicans (ATCC 24433): what inhibition at 25 µg/mL does the record show for `CC(=O)n1c(-c2c(C)n(C(C)=O)c3ccccc23)nc(-c2ccccc2)c1-c1ccccc1` ?
Ans. 0

Qu. Next up: `Brc1ccc2[nH]cc(-c3nc(-c4ccccc4)c(-c4ccccc4)[nH]3)c2c1`
Ans. 0

Qu. Proceed to `COc1ccc(-c2nc(-c3c[nH]c4ccc(Br)cc34)[nH]c2-c2ccc(OC)cc2)cc1`
Ans. 0

* * *

- Tested on: MRSA 1B-387
- ASSAY EXPLANATION: In vivo anti-bacterial activity, ICR mice inoculated I.P. with MRSA, oral treatment
- EXPERIMENTAL CONTEXT: Staphylococcus aureus
PARAMETER: responders at 100 mg/kg (%)
Write it as a number; the unit % goes unstated.

# count of solved cases: 10
- CPD SMILES: "CC(=O)n1c(-c2c(C)n(C(C)=O)c3ccccc23)nc(-c2ccccc2)c1-c1ccccc1"
  responders at 100 mg/kg (%): 20
- CPD SMILES: "c1ccc2c(-c3nc4c5ccccc5c5ccccc5c4[nH]3)c[nH]c2c1"
  responders at 100 mg/kg (%): 40
- CPD SMILES: "Brc1ccc(-c2[nH]c(-c3c[nH]c4ccc(Br)cc34)nc2-c2ccccc2)cc1"
  responders at 100 mg/kg (%): 80
- CPD SMILES: "COC(=O)c1ccc2c(-c3nc(-c4ccccc4)c(-c4ccccc4)[nH]3)c[nH]c2c1"
  responders at 100 mg/kg (%): 20
- CPD SMILES: "Cc1[nH]c2ccccc2c1-c1nc(-c2ccc(Br)cc2)c(-c2ccc(Br)cc2)[nH]1"
  responders at 100 mg/kg (%): 20
- CPD SMILES: "Cc1[nH]c2ccccc2c1-c1nc(-c2ccccc2)c(-c2ccc(Br)cc2)[nH]1"
  responders at 100 mg/kg (%): 0
- CPD SMILES: "Fc1ccc(-c2nc(-c3c[nH]c4ccc(Br)cc34)[nH]c2-c2ccc(F)cc2)cc1"
  responders at 100 mg/kg (%): 20
- CPD SMILES: "Brc1ccc2[nH]cc(-c3nc4c5ccccc5c5ccccc5c4[nH]3)c2c1"
  responders at 100 mg/kg (%): 10
- CPD SMILES: "Cc1[nH]c2ccccc2c1-c1nc(-c2ccccc2)c(-c2ccc(F)cc2)[nH]1"
  responders at 100 mg/kg (%): 4
- CPD SMILES: "Cc1[nH]c2ccccc2c1-c1nc(-c2ccc(N(C)C)cc2)c(-c2ccc(N(C)C)cc2)[nH]1"
  responders at 100 mg/kg (%): 0

Qu. # query: responders at 100 mg/kg | item `Brc1ccc2[nH]cc(-c3nc(-c4ccccc4)c(-c4ccccc4)[nH]3)c2c1` | system: MRSA 1B-387
Ans. 40

Qu. Quick one: `Cc1[nH]c2ccccc2c1-c1nc(-c2ccccc2)c(-c2ccc([N+](=O)[O-])cc2)[nH]1`
Ans. 0

Qu. Now consider `COc1ccc(-c2nc(-c3c[nH]c4ccc(Br)cc34)[nH]c2-c2ccc(OC)cc2)cc1` and answer again.
Ans. 100

Qu. Moving on to `Clc1ccc(-c2[nH]c(-c3c[nH]c4ccc(Br)cc34)nc2-c2ccccc2)cc1`
Ans. 40

Qu. What would you report for `O=[N+]([O-])c1ccc(-c2[nH]c(-c3c[nH]c4ccc(Br)cc34)nc2-c2ccccc2)cc1` ?
Ans. 100

Qu. Can you handle `Cc1[nH]c2ccccc2c1-c1nc2c3ccccc3c3ccccc3c2[nH]1` next?
Ans. 60

Qu. # iterate: `Fc1ccc(-c2[nH]c(-c3c[nH]c4ccc(Br)cc34)nc2-c2ccccc2)cc1`
Ans. 80
